Test system: AA1029
assayName: qHTS profiling for inhibitors of Plasmodium falciparum proliferation (AID 504749); further: nearly all actives have a fitted effect of over 60% in size
measurementSetup: P. falciparum in erythrocytes, SYBR Green DNA, 72 h; series mostly up to 28.7 µM
Records with an inconclusive call do not appear. Active and inactive are the calls of the source. The call rests on the fitted dose curve; in most records, active means well fitted inhibition curve with a large enough effect; inconclusive means small, poorly fitted or top-dose-only effect; inactive means flat fitted curve, though single readings scatter.
Form entry, call: pick from label 1 = active, label 0 = inactive

INSERT INTO measurements (moleculesmiles, discretelabel) VALUES
  ('CO/N=C(\C(=O)N[C@@H]1C(=O)N2C(C(=O)[O-])=C(C[N+]3(C)CCCC3)CS[C@@H]12)c1csc(N)n1', 'label 0'),
  ('CC1(C)S[C@@H]2[C@H](NC(=O)Cc3ccccc3)C(=O)N2[C@@H]1C(=O)O', 'label 0'),
  ('COc1cc2nc(N(C)CCCNC(=O)[C@@H]3CCCO3)nc(N)c2cc1OC', 'label 0'),
  ('O=C(O)[C@@H](O)[C@@H](O)[C@H](O)[C@H](O)CO', 'label 0');

Could you now consider this next compound?
[in] Per the records of this test, what outcome belongs to `OC[C@H](S)CS` ?
[out] label 1
